Biological target: Delta-type opioid receptor (Mus musculus, UniProt P32300)
Sequence (P32300 whole entry): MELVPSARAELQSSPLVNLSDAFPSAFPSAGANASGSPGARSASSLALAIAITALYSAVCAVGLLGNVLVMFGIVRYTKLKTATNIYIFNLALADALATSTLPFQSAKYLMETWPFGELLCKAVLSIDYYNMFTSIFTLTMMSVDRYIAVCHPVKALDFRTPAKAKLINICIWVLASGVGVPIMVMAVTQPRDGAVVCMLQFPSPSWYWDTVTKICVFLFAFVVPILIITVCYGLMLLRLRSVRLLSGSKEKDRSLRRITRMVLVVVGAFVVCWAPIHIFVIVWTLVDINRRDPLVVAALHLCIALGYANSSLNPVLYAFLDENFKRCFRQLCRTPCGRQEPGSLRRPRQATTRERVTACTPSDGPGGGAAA
Test: Compound was tested for opioid receptor delta 1 agonism or antagonism in mouse vas deferens
Item-by-item account of IC50

>  <molecule>
Cc1cc(O)cc(C)c1CC(N)C(=O)NCc1nc(O)c(CNC(=O)C(N)Cc2c(C)cc(O)cc2C)nc1C (centres undefined)

>  <experimentalTarget>
Delta-type opioid receptor (Mus musculus, UniProt P32300)

>  <IC50>
> 10 µM

$$$$
>  <molecule>
Cc1cc(O)cc(C)c1CC(N)C(=O)NCCCc1nc(O)c(CCCNC(=O)C(N)Cc2c(C)cc(O)cc2C)nc1C.Cl.Cl (centres undefined)

>  <experimentalTarget>
Delta-type opioid receptor (Mus musculus, UniProt P32300)

>  <IC50>
> 1 µM

$$$$
>  <molecule>
Cc1cc(O)cc(C)c1CC(N)C(=O)NCCc1nc(O)c(CCNC(=O)C(N)Cc2c(C)cc(O)cc2C)nc1C (centres undefined)

>  <experimentalTarget>
Delta-type opioid receptor (Mus musculus, UniProt P32300)

>  <IC50>
> 10 µM

$$$$
>  <molecule>
Cc1cc(O)cc(C)c1CC(N)C(=O)NCCCCc1nc(O)c(CCCCNC(=O)C(N)Cc2c(C)cc(O)cc2C)nc1C (centres undefined)

>  <experimentalTarget>
Delta-type opioid receptor (Mus musculus, UniProt P32300)

>  <IC50>
0.0415 µM

$$$$

* * *

Biological target: Mu-type opioid receptor (Cavia porcellus, UniProt P97266)
Sequence (P97266 whole entry): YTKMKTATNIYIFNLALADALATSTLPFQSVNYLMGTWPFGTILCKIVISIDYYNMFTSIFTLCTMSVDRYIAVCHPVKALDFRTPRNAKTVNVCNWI
Experiment: Compound was tested for Opioid receptor mu 1 agonism in isolated tissues from guinea pig ileum
pIC50: −log10 of the molar value.

>  <molecule>
Cc1cc(O)cc(C)c1CC(N)C(=O)NCCCCc1nc(O)c(CCCCNC(=O)C(N)Cc2c(C)cc(O)cc2C)nc1C (centres undefined)

>  <pIC50>
8.72

$$$$
>  <molecule>
Cc1cc(O)cc(C)c1CC(N)C(=O)NCCCc1nc(O)c(CCCNC(=O)C(N)Cc2c(C)cc(O)cc2C)nc1C.Cl.Cl (centres undefined)

>  <pIC50>
8.88

$$$$
>  <molecule>
Cc1cc(O)cc(C)c1CC(N)C(=O)NCc1nc(O)c(CNC(=O)C(N)Cc2c(C)cc(O)cc2C)nc1C (centres undefined)

>  <pIC50>
5.77

$$$$
>  <molecule>
Cc1cc(O)cc(C)c1CC(N)C(=O)NCCc1nc(O)c(CCNC(=O)C(N)Cc2c(C)cc(O)cc2C)nc1C (centres undefined)

>  <pIC50>
7.89

$$$$

* * *

Item-by-item account of Ratio
Test system: Opioid receptors; mu & delta
Experiment: Selectivity ratio of Ki of delta-opioid receptor to mu-opioid receptor
Format: protein assay

>  <compound>
Cc1nc(CCCCNC(=O)C(N)Cc2ccc(O)cc2)c(O)nc1CCCCNC(=O)C(N)Cc1ccc(O)cc1 (stereo not drawn)

>  <Ratio>
31

$$$$
>  <compound>
Cc1nc(CNC(=O)C(N)Cc2ccc(O)cc2)c(=O)[nH]c1CNC(=O)C(N)Cc1ccc(O)cc1 (stereo not drawn)

>  <Ratio>
4

$$$$
>  <compound>
Cc1nc(CCCNC(=O)C(N)Cc2ccc(O)cc2)c(O)nc1CCCNC(=O)C(N)Cc1ccc(O)cc1 (stereo not drawn)

>  <Ratio>
17

$$$$

* * *

Target: Delta-type opioid receptor (Rattus norvegicus)
Test: Compound was tested for binding affinity towards opioid receptor delta 1 by displacing [3H]DPDPE radioligand in rat brain P2 synaptosomes membranes.
pKi: −log10 of the molar value.
assayReadout: pKi

>  <compound>
Cc1nc(CCCNC(=O)C(N)Cc2ccc(O)cc2)c(O)nc1CCCNC(=O)C(N)Cc1ccc(O)cc1 (centres undefined)

>  <value>
6.36

$$$$
>  <compound>
Cc1nc(CCNC(=O)C(N)Cc2ccc(O)cc2)c(=O)[nH]c1CCNC(=O)C(N)Cc1ccc(O)cc1 (centres undefined)

>  <value>
5.54

$$$$
>  <compound>
Cc1cc(O)cc(C)c1CC(N)C(=O)NCCc1nc(O)c(CCNC(=O)C(N)Cc2c(C)cc(O)cc2C)nc1C (centres undefined)

>  <value>
8.14

$$$$
>  <compound>
Cc1cc(O)cc(C)c1CC(N)C(=O)NCCCc1nc(O)c(CCCNC(=O)C(N)Cc2c(C)cc(O)cc2C)nc1C.Cl.Cl (centres undefined)

>  <value>
7.88

$$$$

* * *

Molecular target: Delta-type opioid receptor (Rattus norvegicus, UniProt P33533)
Sequence (P33533 whole entry): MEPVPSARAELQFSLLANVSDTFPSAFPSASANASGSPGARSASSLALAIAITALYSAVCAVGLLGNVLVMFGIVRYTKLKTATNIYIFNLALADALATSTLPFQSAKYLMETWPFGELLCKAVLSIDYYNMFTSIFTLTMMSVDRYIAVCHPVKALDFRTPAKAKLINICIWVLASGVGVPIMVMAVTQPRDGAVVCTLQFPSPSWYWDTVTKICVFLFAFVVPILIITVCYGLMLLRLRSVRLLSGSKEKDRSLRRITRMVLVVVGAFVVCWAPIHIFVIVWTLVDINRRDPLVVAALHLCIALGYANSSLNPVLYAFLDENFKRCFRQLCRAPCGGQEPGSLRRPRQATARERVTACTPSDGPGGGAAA
Experiment: Compound was tested for binding affinity towards opioid receptor delta 1 by displacing [3H]DPDPE radioligand in rat brain P2 synaptosomes membranes.
pKi: −log10 of the molar value.

>  <molecule>
Cc1nc(CNC(=O)C(N)Cc2ccc(O)cc2)c(=O)[nH]c1CNC(=O)C(N)Cc1ccc(O)cc1 (centres undefined)

>  <pKi>
5.74

$$$$
>  <molecule>
Cc1nc(CCCCNC(=O)C(N)Cc2ccc(O)cc2)c(O)nc1CCCCNC(=O)C(N)Cc1ccc(O)cc1 (centres undefined)

>  <pKi>
5.66

$$$$
>  <molecule>
Cc1cc(O)cc(C)c1CC(N)C(=O)NCCCCc1nc(O)c(CCCCNC(=O)C(N)Cc2c(C)cc(O)cc2C)nc1C (centres undefined)

>  <pKi>
7.63

$$$$
>  <molecule>
Cc1cc(O)cc(C)c1CC(N)C(=O)NCc1nc(O)c(CNC(=O)C(N)Cc2c(C)cc(O)cc2C)nc1C (centres undefined)

>  <pKi>
7.80

$$$$

* * *

System: Opioid receptors; mu & delta
Test: Selectivity ratio of Ki of delta-opioid receptor to mu-opioid receptor
Type: protein assay
assayReadout: Ratio

>  <compound>
Cc1cc(O)cc(C)c1CC(N)C(=O)NCCCc1nc(O)c(CCCNC(=O)C(N)Cc2c(C)cc(O)cc2C)nc1C.Cl.Cl (centres undefined)

>  <value>
307

$$$$
>  <compound>
Cc1nc(CCNC(=O)C(N)Cc2ccc(O)cc2)c(=O)[nH]c1CCNC(=O)C(N)Cc1ccc(O)cc1 (centres undefined)

>  <value>
9.4

$$$$
>  <compound>
Cc1cc(O)cc(C)c1CC(N)C(=O)NCc1nc(O)c(CNC(=O)C(N)Cc2c(C)cc(O)cc2C)nc1C (centres undefined)

>  <value>
13.5

$$$$
>  <compound>
Cc1cc(O)cc(C)c1CC(N)C(=O)NCCCCc1nc(O)c(CCCCNC(=O)C(N)Cc2c(C)cc(O)cc2C)nc1C (centres undefined)

>  <value>
204

$$$$

* * *

Molecular target: Mu-type opioid receptor (Rattus norvegicus)
Sequence (P33535 whole entry): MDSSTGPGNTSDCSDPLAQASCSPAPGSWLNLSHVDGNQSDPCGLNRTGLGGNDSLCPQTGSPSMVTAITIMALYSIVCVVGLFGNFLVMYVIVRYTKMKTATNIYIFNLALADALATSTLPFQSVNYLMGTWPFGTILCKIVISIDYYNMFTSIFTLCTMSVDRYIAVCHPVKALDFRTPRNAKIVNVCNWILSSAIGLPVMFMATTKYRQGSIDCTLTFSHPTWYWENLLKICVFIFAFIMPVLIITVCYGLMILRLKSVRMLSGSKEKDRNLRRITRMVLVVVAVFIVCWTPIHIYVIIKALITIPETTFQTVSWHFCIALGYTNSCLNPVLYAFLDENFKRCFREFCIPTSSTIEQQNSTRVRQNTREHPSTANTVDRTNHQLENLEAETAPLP
Item-by-item account of Ki

>  <compound>
Cc1nc(CCCCNC(=O)C(N)Cc2ccc(O)cc2)c(O)nc1CCCCNC(=O)C(N)Cc1ccc(O)cc1 (stereo unspecified)

>  <experimentalTarget>
Mu-type opioid receptor (Rattus norvegicus)

>  <Ki (nM)>
70.2

$$$$
>  <compound>
Cc1cc(O)cc(C)c1CC(N)C(=O)NCCCc1nc(O)c(CCCNC(=O)C(N)Cc2c(C)cc(O)cc2C)nc1C.Cl.Cl (stereo unspecified)

>  <experimentalTarget>
Mu-type opioid receptor (Rattus norvegicus)

>  <Ki (nM)>
0.042

$$$$
>  <compound>
Cc1nc(CCCNC(=O)C(N)Cc2ccc(O)cc2)c(O)nc1CCCNC(=O)C(N)Cc1ccc(O)cc1 (stereo unspecified)

>  <experimentalTarget>
Mu-type opioid receptor (Rattus norvegicus)

>  <Ki (nM)>
25.7

$$$$
>  <compound>
Cc1cc(O)cc(C)c1CC(N)C(=O)NCCCCc1nc(O)c(CCCCNC(=O)C(N)Cc2c(C)cc(O)cc2C)nc1C (stereo unspecified)

>  <experimentalTarget>
Mu-type opioid receptor (Rattus norvegicus)

>  <Ki (nM)>
0.114

$$$$
>  <compound>
Cc1nc(CCNC(=O)C(N)Cc2ccc(O)cc2)c(=O)[nH]c1CCNC(=O)C(N)Cc1ccc(O)cc1 (stereo unspecified)

>  <experimentalTarget>
Mu-type opioid receptor (Rattus norvegicus)

>  <Ki (nM)>
309

$$$$
>  <compound>
Cc1cc(O)cc(C)c1CC(N)C(=O)NCc1nc(O)c(CNC(=O)C(N)Cc2c(C)cc(O)cc2C)nc1C (stereo unspecified)

>  <experimentalTarget>
Mu-type opioid receptor (Rattus norvegicus)

>  <Ki (nM)>
1.16

$$$$
